tested on: SK-MEL-5 melanoma; test: NCI-60 one-dose screen, 48 h (100 = growth as untreated, 0 = no growth, -100 = all killed); settings: 10 µM unless noted
Compounds without any hit were thinned out: in the full panel of roughly 83,000, 20% have a hit.
QUANTITY KIND: growth (%)
Enter your answer as a number in %; do not include the unit.

Fill in the blank: the reported growth of `COc1ccc2nc3cc(Cl)ccc3c(N3CCN(c4ccnc(N5CCOCC5)n4)CC3)c2c1` is ____.
88.4

Param item = `CCCC(=O)Oc1ccc(/C(=C(/CC)Cc2ccccc2)c2ccc(OCCN3CCCC3)cc2)cc1` ; retrieve measured growth.
66.2

What value of growth has been recorded for this entry: `C[C@@H]1CC[C@@H]2[C@@H]1[C@H](OC(=O)/C=C/c1ccccc1)[C@]1(c3ccccc3)C[C@@H](OC(=O)CO)[C@@]2(C)O1`
94.8

Param item = `O=C(O)c1ccc2c(c1Sc1ccccc1)C(=O)c1ccccc1C2=O` ; retrieve measured growth.
93.6

----------
system: HT29 colon; experiment: NCI-60 one-dose screen, 48 h (100 = growth as untreated, 0 = no growth, -100 = all killed); conditions: 10 µM unless noted
Compounds without any hit were thinned out: in the full panel of roughly 83,000, 20% have a hit.
Quick rule for you: growth at 70% or higher means t, lower means f.

Hello, I need to know if `Cc1ccc(-c2nc(/C=N/Nc3cc(C)nc4ccc(Br)cc34)c(C)o2)cc1` has measured growth not below 70%. Thanks!
f

Hi team, for `COc1ccc2nc3cc(Cl)ccc3c(N3CCN(c4ccnc(N5CCN(C)CC5)n4)CC3)c2c1` , is the recorded growth at or above 70%?
f

Has `COc1cc(C(=O)/C=C/c2c(C)n([O-])c3ccc(C)cc3[n+]2=O)cc(OC)c1OC` a recorded growth greater than or equal to 70%?
f

API: above_or_equal(metric=growth, cutoff=70%) for item `Cc1ccccc1CCO`
t

Is growth at least 70%? Consider C=C1CC2(OC1=O)C(=O)N(CCCCCCCCCCCCN1C(=O)C3(CC(=C)C(=O)O3)c3ccccc31)c1ccccc12 (stereo not drawn)
t

// inclusive: growth at least 70%? input: `CNCc1cccc2c1OCCOCCOCCN(C)S(=O)(=O)c1ccc(cc1)-c1cnc(N)c(n1)C(=O)N2`
f

Check this compound for growth at or above 70%: `O=C1O[C@H]([C@H](O)CO)C(O)=C1O`
t

Hi, just wondering whether `O=c1c2cccc3c(Nc4ccccn4)ccc(c32)c2nc3ccccc3n12` shows growth of 70% or higher.
f

Check if growth >= 70% (inclusive). Item: `O=C1Nc2ccccc2/C1=C/C(=N/c1nnc(-c2ccccc2)s1)c1ccccc1`
f

Please indicate if the recorded growth for `O=C([C@@H](COCc1ccccc1)N1C(=O)[C@@H](N2C(=O)OC[C@@H]2c2ccccc2)[C@H]1/C=C/c1ccccc1)N1CCC(CCN2CCCCC2)CC1` meets or exceeds 70%.
f

Form field: growth at least 70%? Entry: CC1=C(C)C(=O)OC([C@](C)(O)[C@]2(O)CC[C@@]3(O)[C@@H]4C[C@H]5O[C@]56CC=CC(=O)[C@]6(C)[C@H]4CC[C@]23COC(=O)c2ccc(C)o2)C1 (stereo partly drawn)
f

Record `CCCCCCCCCCCCCCCCCCSC1=CC(=O)C(OC)=C(OC)C1=O` ; criterion: growth no lower than 70%. Met?
t

Quick check: does `O=C1c2cc3c(cc2-c2c1c1cc(Cl)c(Cl)cc1c(=O)n2CCCn1ccnc1)OCO3` have growth greater than or equal to 70%?
f

Could you tell me if the measured growth of `CCN(CC)CC(C)(C)C(=O)/C=C/c1ccccc1` reaches 70% or more?
f

Textbook exercise: given the entry `Fc1ccc(Cc2ccc(F)cc2)cc1` , state whether its growth is greater than or equal to 70%.
t

# check: growth of CC(C)CC(CC1=CCC2CC1C2(C)C)C1=C(O)C(C)(C)C(=O)C(C)(C)C1=O (stereo not drawn) is greater than or equal to 70%
f

State whether the measured growth reaches 70%, counting equality as reaching it, for `COc1cnc2c(c1)C(=O)c1c-2n(CCCBr)c(=O)c2cc([N+](=O)[O-])ccc12`
f

Test whether the compound `O=S(=O)(Nc1ccc(Cl)cc1Cl)c1ccc(-c2cnc(C3CC3)o2)cc1` records growth of 70% or higher.
f

Could you please find out whether `COc1ccc(-c2csc(NC(=O)CN3CCN(c4cc5c(cc4F)c(=O)c(C(=O)O)cn5C4CC4)CC3)n2)cc1` has growth that meets 70% or exceeds it?
f

For this compound, is measured growth 70% or higher? `CCOC(=O)c1c2c(n3ccc(NC(=O)CCN(CC)CC)cc13)C(=O)c1ncccc1C2=O`
f

Check this compound for growth at or above 70%: `O=C1Nc2c(ccc(Cl)c2Cl)/C1=C/c1cc(Br)c(O)c(Br)c1`
f

Does `Oc1ccccc1N=Cc1c(O)ccc2ccccc12` have a reported growth of at least 70%?
t

Is growth at least 70%? Consider `Oc1cc(O)c2c(=S)cc(-c3ccc(Cl)cc3)oc2c1`
t

Does Cc1nc2sc(C(=O)Nc3cccc4c3OCCO4)c(N)c2cc1C(C)O (stereo not drawn) have a reported growth of at least 70%?
f

Does the compound `O=c1c2cccc3c(NC4CCCCC4)ccc(c32)c2nc3ccccc3n12` have recorded growth that is 70% or more?
t

For this compound, is measured growth 70% or higher? `CC(=O)O[C@H]1CC[C@]2(C)[C@H]3CC[C@@H]4[C@H]5[C@H](C(C)C)CC[C@]5(C(=O)OCC(CO)(CO)N=C(N)N)CC[C@@]4(C)[C@]3(C)CC[C@H]2C1(C)C`
f

Kindly determine if growth recorded for `CC1=C(NCCN2CCCC2)C(=O)c2c(OCc3ccc(C(F)(F)F)cc3)cccc2C1=O` is above or exactly 70%.
f

Determine whether measured growth meets or exceeds 70% for `COc1cc(NCCCCN=C(N)NC(N)=NC(C)C)c2ncccc2c1`
f

Dear colleague, could you confirm whether `COc1ccccc1/C=C(/C(=O)c1ccccc1)c1ccccc1` has growth at or above 70%?
t

Confirm if growth reported for the compound `CN1CCN(Cc2ccc(NC(=O)c3[nH]ncc3Nc3ncnc4c3CCC4)cc2)CC1` is 70% or above.
f

Answer whether growth of `O=C(CN1CCN(c2cc3c(cc2F)c(=O)c(C(=O)O)cn3C2CC2)CC1)Nc1nc(-c2ccccc2)cs1` is greater than or equal to 70%.
t

Does the reported growth for `COc1ccc(C(=O)c2sc3nc(-c4ccccc4OC)ccc3c2N)cc1OC` fall at or above the 70% mark?
f

Tell me whether growth is at least 70% here: `COc1ccc(C(=O)/C=C/c2c[n+](=O)c3ccc(F)cc3n2[O-])cc1`
t

Does `Oc1c(Cl)cc(Cl)cc1CNc1nccnn1` have a reported growth of at least 70%?
t

Reported growth reaches at least 70% for `CC(=O)C1=C(O)C=C2Oc3c(C(=O)/C=C/c4ccccc4)c(O)c(C)c(O)c3[C@]2(C)C1=O` ?
f

growth >= 70% for `COc1cc(/C=N\NC(=O)CN2CCN(c3cc4c(cc3F)c(=O)c(C(=O)N/N=C/c3ccc(O)c(OC)c3)cn4C3CC3)CC2)ccc1O` ?
f

Does growth meet or surpass 70% for `O=C(O)c1c([N+](=O)[O-])cnc2ccccc12` ?
t

Answer whether growth of `O=C1/C(=C/c2ccc(Cl)c(Cl)c2)CN(C(=O)CCN2CCC(=NO)CC2)C/C1=C\c1ccc(Cl)c(Cl)c1` is greater than or equal to 70%.
f

----------
Give growth for every item shown.
system: NCI-H460 lung; experiment: NCI-60 one-dose screen, 48 h (100 = growth as untreated, 0 = no growth, -100 = all killed); settings: 10 µM unless noted
Compounds without any hit were thinned out: in the full panel of roughly 83,000, 20% have a hit. The source made the active and inactive calls. How the source made its calls: active means growth percent below 10; inactive means the rest.

# query: growth of entry `CCC(=O)Oc1ccc(/C(=C(\C)c2ccccc2)c2ccc(OCCN(CC)CC)cc2)cc1`
80.9% (inactive)

Recorded growth of `Cc1nc2nc(N)nc(N)c2nc1C` , please.
108% (inactive)

Using the record for `CC(C)(C)n1cc(-c2ccnc(NCCCNS(=O)(=O)c3cccc4ccccc34)c2)c(-c2cccc(O)c2)n1` , report its growth.
2.1% (active)

I am curious: what growth value has been reported for `O=c1c(/C=C/c2ccco2)nnc(SCCN2CCOCC2)n1/N=C/c1ccc([N+](=O)[O-])cc1` ?
103% (inactive)

# input molecule: `COc1nc2c(cc1S(=O)(=O)c1ccccc1)CCc1c-2cnn1-c1ccc(Cl)cc1` ; wanted: its growth
99.2% (inactive)

Please report the recorded growth for `CC/C=C\C[C@H](F)C/C=C1/C(=O)C=C[C@@H]1C/C=C\CCCC(=O)OC` .
1.34% (active)

Which measured growth value corresponds to CC(=O)OCC(=O)C1CCC=CC1OC(C)=O (centres undefined) ?
108% (inactive)

I have this molecule here, `COc1ccc(-c2nn(-c3ccccc3)cc2/C=C/C(=O)OCc2cn(-c3ccc(F)c(Cl)c3)nn2)cc1` , and I need its recorded growth.
96.7% (inactive)

Return reported growth; argument: `O=[N+]([O-])c1cccc(-c2nc3sccn3c2-c2ccnc(NCCCNS(=O)(=O)c3ccc(F)cc3)n2)c1`
10.5% (inactive)

Record request: growth value, item `CCCCCN(CCCCC)CCC[C@@H](C)[C@H]1CC[C@H]2[C@@H]3[C@H](OCCCN)C[C@@H]4C[C@H](OCCCN)CC[C@]4(C)[C@H]3C[C@H](OCCCN)[C@]12C`
45.2% (inactive)

Given the molecule `CNc1nc(C)c(-c2nc(Nc3cccc(S(N)(=O)=O)c3)ncc2F)s1` , what is its reported growth?
4.4% (active)

Record request: growth value, item CCN(CC)CCCC(C)Nc1ccnc2c(OC)cccc12 (centres undefined)
125% (inactive)

Look up growth for this molecule: `COCCCN=C(N)c1ccc(NC(=O)c2ccc(C(=O)Nc3ccc(C(N)=NCCCOC)cc3)cc2)cc1`
102% (inactive)

Suppose we examine the molecule `C#Cc1nc2ccccc2c(=O)[nH]1` ; what growth value has been reported?
11.1% (inactive)

Look at this molecule and give its reported growth. `CCCCOc1ccc(NC(=O)n2nc(NC(C)=O)c3cc(NC(C)=O)ccc32)cc1`
102% (inactive)

# input molecule: `Brc1cccc(-c2nc(-c3ccc4c(c3)OCCO4)co2)c1` ; wanted: its growth
25.2% [25 µM] (inactive)

Looking for the measured growth of `COc1ccc2nc3cc(Cl)ccc3c(N3CCN(c4nccc(Nc5ccccc5)n4)CC3)c2c1` , can you help?
67.4% (inactive)

# query: growth of entry CCCCCCCCCCCCNC(=O)[C@H]1CSC(c2ccc(OC)c(F)c2)N1 (some centres undefined)
-71.8% (active)

Recorded growth for `COc1ccc(-c2cc(-c3cccnc3)nc3sc4c(=O)n(-c5ccc(C)cc5)nnc4c23)cc1OC` , please?
100% (inactive)
